TEST SYSTEM: hEP3 (Homo sapiens, UniProt P43115)
Sequence (P43115 1-390): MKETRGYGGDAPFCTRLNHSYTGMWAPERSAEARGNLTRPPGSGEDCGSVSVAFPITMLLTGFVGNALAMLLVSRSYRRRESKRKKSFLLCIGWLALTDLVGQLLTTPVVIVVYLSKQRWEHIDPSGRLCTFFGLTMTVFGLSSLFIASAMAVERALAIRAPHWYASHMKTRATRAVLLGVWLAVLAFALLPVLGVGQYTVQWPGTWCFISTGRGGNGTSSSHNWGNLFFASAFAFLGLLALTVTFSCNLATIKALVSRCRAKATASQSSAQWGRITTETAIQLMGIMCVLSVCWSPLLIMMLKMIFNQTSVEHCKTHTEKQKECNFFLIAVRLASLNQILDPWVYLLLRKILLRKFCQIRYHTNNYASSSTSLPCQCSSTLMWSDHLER
PROTOCOL NOTES: Other receptors: hEP3 / hEP3A
Type: cell-based
ASSAY CONTEXT: the 3rd table; read-out: Other Receptors (ED50 in nM) hEP3A
We begin with a simple list: items and their reported EC50.
Give your result in nM as a bare value.

INSERT INTO assay_data (smiles_text, value) VALUES
  ('CCCc1cccc(OC[C@@H]2[C@@H](CCCc3ccc(C(=O)O)s3)[C@H](Cl)C[C@H]2O)c1', 6520),
  ('O=C(O)c1ccc(CCC[C@@H]2[C@@H](COc3cccc4c3CCCC4)[C@H](O)C[C@H]2Cl)s1', 5790);

Now for a further compound.
Record O=C(O)c1ccc(CCC[C@@H]2[C@@H](COc3cc(F)cc(F)c3)[C@H](O)C[C@H]2Cl)s1 , field EC50: 4140

* * *

Entries annotated with measured pKi
TEST SYSTEM: hEP2 (Homo sapiens, UniProt P43116)
Sequence (P43116 whole entry): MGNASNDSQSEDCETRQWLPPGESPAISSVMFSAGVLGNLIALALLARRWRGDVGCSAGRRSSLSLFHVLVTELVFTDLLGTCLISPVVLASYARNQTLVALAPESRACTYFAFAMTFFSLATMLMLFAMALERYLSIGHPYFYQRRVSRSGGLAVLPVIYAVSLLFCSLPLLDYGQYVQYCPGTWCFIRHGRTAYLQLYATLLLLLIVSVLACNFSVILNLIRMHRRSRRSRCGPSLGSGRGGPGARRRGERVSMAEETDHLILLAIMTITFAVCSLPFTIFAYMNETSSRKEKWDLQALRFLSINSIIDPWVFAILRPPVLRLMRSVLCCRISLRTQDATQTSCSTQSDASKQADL
PROTOCOL NOTES: hEP2 binding (Ki)
ASSAY CONTEXT: the 3rd table; read-out: EP2 data Ki
To interpret pKi, take it as minus log10 of a concentration measured in moles per litre.

These recorded examples may help you get a feel for the data.
INSERT INTO measurements (smiles_text, parameter, value) VALUES
  ('O=C(O)c1ccc(CCC[C@@H]2[C@@H](COc3ccccc3)[C@H](O)C[C@H]2Cl)s1', 'pKi', 7.54),
  ('CCc1cccc(OC[C@@H]2[C@@H](CCCc3ccc(C(=O)O)s3)[C@H](Cl)C[C@H]2O)c1', 'pKi', 8.40);

Proceed to the following item.
// pKi value for O=C(O)c1ccc(CCC[C@@H]2[C@@H](COc3ccc4ccccc4c3)[C@H](O)C[C@H]2Cl)s1 : 8.52

* * *

TEST SYSTEM: hEP2 (Homo sapiens, UniProt P43116)
PROTOCOL NOTES: hEP2 cAMP functional assay
Type: cell-based
ASSAY CONTEXT: the 3rd table; read-out: EP2 data cAMP EC50
PARAMETER: EC50
Reply with a number, then the unit it belongs to.

Worked examples follow.
INSERT INTO results (smiles_text, parameter, value) VALUES
  ('Cc1cc(OC[C@@H]2[C@@H](CCCc3ccc(C(=O)O)s3)[C@H](Cl)C[C@H]2O)cc(C)c1Cl', 'EC50', '0.2 nM'),
  ('O=C(O)c1ccc(CCC[C@@H]2[C@@H](COc3cccc4ccccc34)[C@H](O)C[C@H]2Cl)s1', 'EC50', '0.7 nM'),
  ('CCCc1cccc(OC[C@@H]2[C@@H](CCCc3ccc(C(=O)O)s3)[C@H](Cl)C[C@H]2O)c1', 'EC50', '0.4 nM'),
  ('CCc1cccc(OC[C@@H]2[C@@H](CCCc3ccc(C(=O)O)s3)[C@H](Cl)C[C@H]2O)c1', 'EC50', '0.4 nM');

The compound identified as O=C(O)c1ccc(CCC[C@@H]2[C@@H](COc3cc(F)cc(F)c3)[C@H](O)C[C@H]2Cl)s1 registered its EC50 at 0.3 nM

For record O=C(O)c1ccc(CCC[C@@H]2[C@@H](COc3ccccc3)[C@H](O)C[C@H]2Cl)s1 the listed EC50 is 3.4 nM

* * *

// Ki lookup, one value per entry
TEST SYSTEM: UniProt:P43116
PROTOCOL NOTES: hEP2 binding (Ki)
ASSAY CONTEXT: the 3rd table; read-out: EP2 data Ki
Please respond with the number in nM and leave the unit unwritten.

INSERT INTO measurements (smiles_text, u, value) VALUES
  ('CCCc1cccc(OC[C@@H]2[C@@H](CCCc3ccc(C(=O)O)s3)[C@H](Cl)C[C@H]2O)c1', 'nM', 6),
  ('CCc1cc(OC[C@@H]2[C@@H](CCCc3ccc(C(=O)O)s3)[C@H](Cl)C[C@H]2O)ccc1Cl', 'nM', 2),
  ('O=C(O)c1ccc(CCC[C@@H]2[C@@H](COc3cccc4c3CCCC4)[C@H](O)C[C@H]2Cl)s1', 'nM', 37);

# Ki of O=C(O)c1ccc(CCC[C@@H]2[C@@H](COc3ccc(Cl)c4ccccc34)[C@H](O)C[C@H]2Cl)s1 = 10

The reported Ki of the molecule O=C(O)c1ccc(CCC[C@@H]2[C@@H](COc3ccc4c(c3)CCCC4)[C@H](O)C[C@H]2Cl)s1 was 38

* * *

TEST SYSTEM: hEP2 (Homo sapiens, UniProt P43116)
PROTOCOL NOTES: hEP2 cAMP functional assay
Format: cell-based
ASSAY CONTEXT: the 3rd table; read-out: EP2 data cAMP EC50
Item-by-item account of pEC50
Please report pEC50 as the negative decimal logarithm of the molar concentration, giving only the number.

INSERT INTO assay_data (smiles_text, parameter, value) VALUES
  ('O=C(O)c1ccc(CCC[C@@H]2[C@@H](COc3ccc(Cl)c4ccccc34)[C@H](O)C[C@H]2Cl)s1', 'pEC50', 8.60),
  ('CCc1cc(OC[C@@H]2[C@@H](CCCc3ccc(C(=O)O)s3)[C@H](Cl)C[C@H]2O)ccc1Cl', 'pEC50', 9.40),
  ('O=C(O)c1ccc(CCC[C@@H]2[C@@H](COc3cc(F)cc(C(F)(F)F)c3)[C@H](O)C[C@H]2Cl)s1', 'pEC50', 9.70),
  ('O=C(O)c1ccc(CCC[C@@H]2[C@@H](COc3ccc4ccccc4c3)[C@H](O)C[C@H]2Cl)s1', 'pEC50', 8.52),
  ('O=C(O)c1ccc(CCC[C@@H]2[C@@H](COc3cccc4c3CCCC4)[C@H](O)C[C@H]2Cl)s1', 'pEC50', 8.60);

Kindly note: hEP2 (Homo sapiens, UniProt P43116), CCCCCCCc1ccc(OC[C@@H]2[C@@H](CCCc3ccc(C(=O)O)s3)[C@H](Cl)C[C@H]2O)cc1 , pEC50 value reported: 7.34

Lab note: molecule O=C(O)c1ccc(CCC[C@@H]2[C@@H](COc3ccc4c(c3)CCCC4)[C@H](O)C[C@H]2Cl)s1 tested on hEP2 (Homo sapiens, UniProt P43116); recorded pEC50 was 7.92

* * *

TEST SYSTEM: hEP2 (Homo sapiens, UniProt P43116)
PROTOCOL NOTES: hEP2 binding (Ki)
ASSAY CONTEXT: the 3rd table; read-out: EP2 data Ki
Ki less than 2 nM is true; Ki greater than or equal to 2 nM is false.

Solved cases (4 shown):
INSERT INTO assay_data (smiles_text, assigned_class) VALUES
  ('O=C(O)c1ccc(CCC[C@@H]2[C@@H](COc3cc(F)cc(F)c3)[C@H](O)C[C@H]2Cl)s1', 'false'),
  ('Cc1cc(OC[C@@H]2[C@@H](CCCc3ccc(C(=O)O)s3)[C@H](Cl)C[C@H]2O)cc(C)c1Cl', 'true'),
  ('O=C(O)c1ccc(CCC[C@@H]2[C@@H](COc3cc(F)cc(C(F)(F)F)c3)[C@H](O)C[C@H]2Cl)s1', 'false'),
  ('CCCCCCCc1ccc(OC[C@@H]2[C@@H](CCCc3ccc(C(=O)O)s3)[C@H](Cl)C[C@H]2O)cc1', 'false');

IN: I wonder whether O=C(O)c1ccc(CCC[C@@H]2[C@@H](COc3cccc4ccccc34)[C@H](O)C[C@H]2Cl)s1 has Ki below 2 nM. Can you tell?
OUT: false
